Biological target: T1, monkey GFRα3 expressed with a C-terminal myc-myc-hexahistidine tag (monkey (Mf), UniProt O60609 32-374 (human entry), limits assumed)
T1 construct: also called MfGFRα3-mmh; MfGFRα3-mmH
T1 chain: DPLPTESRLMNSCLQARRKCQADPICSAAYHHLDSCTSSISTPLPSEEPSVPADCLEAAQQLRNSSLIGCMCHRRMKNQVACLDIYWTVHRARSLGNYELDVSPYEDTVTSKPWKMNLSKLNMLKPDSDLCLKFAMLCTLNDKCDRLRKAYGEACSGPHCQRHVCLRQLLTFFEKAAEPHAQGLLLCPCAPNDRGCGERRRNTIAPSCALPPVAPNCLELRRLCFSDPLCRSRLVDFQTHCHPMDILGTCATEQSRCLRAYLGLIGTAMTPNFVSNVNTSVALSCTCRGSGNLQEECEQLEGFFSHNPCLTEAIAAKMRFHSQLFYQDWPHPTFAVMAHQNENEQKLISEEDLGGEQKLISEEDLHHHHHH
Assay: SPR, Ab captured, 25C
readoutLabel: koff (s⁻¹)
Entry rule: numbers only, all in s⁻¹.

H4H2292S (antibody, human IgG4, V domains shown, human IgG4 Fc (H4H)) VH: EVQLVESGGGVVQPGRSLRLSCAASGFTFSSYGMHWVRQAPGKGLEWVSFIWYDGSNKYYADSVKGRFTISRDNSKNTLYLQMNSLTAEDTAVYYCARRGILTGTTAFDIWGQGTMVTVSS VL: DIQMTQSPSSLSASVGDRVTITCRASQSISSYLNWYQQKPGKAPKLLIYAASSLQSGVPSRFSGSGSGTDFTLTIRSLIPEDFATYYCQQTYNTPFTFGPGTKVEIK
0.000122
H4H2294S (antibody, human IgG4, V domains shown, human IgG4 Fc (H4H)) VH: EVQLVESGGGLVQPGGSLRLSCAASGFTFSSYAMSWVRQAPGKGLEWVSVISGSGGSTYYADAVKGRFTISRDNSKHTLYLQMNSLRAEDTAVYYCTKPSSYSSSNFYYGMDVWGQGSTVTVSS VL: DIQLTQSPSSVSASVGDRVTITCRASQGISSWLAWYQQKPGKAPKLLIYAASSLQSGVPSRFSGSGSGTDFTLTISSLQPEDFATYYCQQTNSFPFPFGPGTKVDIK
0.000204

In the following, a different binder is considered.
The value of koff measured for the binder H4H2354S (antibody, human IgG4, V domains shown, human IgG4 Fc (H4H); also called H4H2354S-1) VH: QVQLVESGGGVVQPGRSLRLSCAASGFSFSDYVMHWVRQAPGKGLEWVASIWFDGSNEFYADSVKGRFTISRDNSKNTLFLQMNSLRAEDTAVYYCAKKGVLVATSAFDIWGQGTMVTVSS VL: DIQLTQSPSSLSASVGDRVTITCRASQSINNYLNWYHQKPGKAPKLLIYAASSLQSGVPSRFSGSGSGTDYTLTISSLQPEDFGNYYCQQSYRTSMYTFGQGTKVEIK turned out to be 6.23e-05

Sourced from patent US20140056903A1
